Assay: refractive index (Na D-line) (dimensionless)
Details: 298.15 K; 101.33 kPa; Liquid; Standard Abbe refractometry
propertyMeasured: refractive index
Answers are plain numbers.

Would you mind listing refractive index for each of the following compounds?
1. CCC(C)=O
2. CCC(=O)CC
3. CN1CCCC1=O
4. CC(=O)CC(C)C
5. O=C1CCCCC1
6. CCCC(C)=O

[1.377, 1.3902, 1.4674, 1.3935, 1.4501, 1.3883]

---

Would you kindly list mass density for each of these compounds?
Conditions: 303.15 K; 101.33 kPa; Liquid
One number for each entry, in kg/m3.

| compound | mass density (kg/m3) |
| --- | --- |
| O=C1CCCCC1 [cyclohexanone] | 937.55 |
| CCCC(C)=O [pentan-2-one] | 796.58 |
| CCC(C)=O [butanone] | 794.5 |
| CCC(=O)CC [pentan-3-one] | 804.62 |

Which mass density is listed for CC(=O)CC(C)C [4-methylpentan-2-one] ? 791.25
